# study-target: human tissue factor (TF), membrane-bound on cells (human, UniProt P13726 33-295)
# assay-info: cell-based or functional assay
value-type: IC50, inhibition of FVIIa induced ERK phosphorylation (A431)

Enquiry: Look up IC50, inhibition of FVIIa induced ERK phosphorylation (A431) for this binder: anti-TF HuMab 111 (antibody, V domains shown, Human monoclonal antibody from HuMab mice) VH: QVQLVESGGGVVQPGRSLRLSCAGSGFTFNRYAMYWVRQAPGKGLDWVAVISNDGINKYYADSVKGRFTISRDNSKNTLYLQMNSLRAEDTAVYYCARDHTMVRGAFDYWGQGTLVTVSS VL: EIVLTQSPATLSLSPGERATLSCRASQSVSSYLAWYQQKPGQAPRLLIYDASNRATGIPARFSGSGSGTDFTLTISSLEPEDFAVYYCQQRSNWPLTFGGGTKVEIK
Return: > 66.6 nM

Values were extracted from patent US20110300156A1.
